The reported measurements were obtained from patent US9309263B2.

target: Beta Secretase enzyme (BACE) (Homo sapiens, UniProt P56817); experiment: In vitro enzymatic BACE FRET assay; format: biochemical; settings: average IC50; read-out: BACE1 FRET assay IC50
Sequence (P56817 46-501): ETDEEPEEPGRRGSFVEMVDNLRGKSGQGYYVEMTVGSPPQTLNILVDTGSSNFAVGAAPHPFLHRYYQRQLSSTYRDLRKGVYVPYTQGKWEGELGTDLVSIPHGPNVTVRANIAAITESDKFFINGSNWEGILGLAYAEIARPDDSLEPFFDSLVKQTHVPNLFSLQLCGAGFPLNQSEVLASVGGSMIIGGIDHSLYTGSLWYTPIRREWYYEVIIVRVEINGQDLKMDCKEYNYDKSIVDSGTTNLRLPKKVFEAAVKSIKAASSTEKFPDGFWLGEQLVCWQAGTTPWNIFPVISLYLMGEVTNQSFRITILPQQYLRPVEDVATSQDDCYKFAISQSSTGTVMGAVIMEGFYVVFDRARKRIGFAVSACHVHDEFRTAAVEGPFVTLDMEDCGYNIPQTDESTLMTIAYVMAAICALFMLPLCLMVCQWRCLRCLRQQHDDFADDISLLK
recorded metric: IC50 (nM)

A selection of reference data follows.
{"columns": ["compound", "target desc", "units label", "IC50"],
 "data": [
  ["Cc1cc(C(F)(F)F)cnc1C(=O)Nc1ccc2c(c1)[C@@]1(C)N=C(N)C(C)(C)S(=O)(=O)[C@@H]1CCC2", "Beta Secretase enzyme (BACE) (Homo sapiens, UniProt P56817)", "nM", 18],
  ["CC1(C)C(N)=N[C@]2(C)c3cc(NC(=O)c4cc5ccccc5cn4)ccc3OCC[C@H]2S1(=O)=O", "Beta Secretase enzyme (BACE) (Homo sapiens, UniProt P56817)", "nM", 84]
]}

(A) CC1(C)C(N)=N[C@]2(C)c3cc(Nc4nccc5cc(C#N)cnc45)ccc3CCC[C@@H]2S1(=O)=O
(B) COc1cnc(C(=O)Nc2ccc3c(c2)[C@@]2(C)N=C(N)C(C)(C)S(=O)(=O)[C@@H]2CCO3)c(Cl)c1
(C) CC#C[C@H](C)Oc1ccc(C(=O)Nc2ccc3c(c2)[C@@]2(C)N=C(N)C(C)(C)S(=O)(=O)[C@@H]2CCO3)nc1 (single isomer, unassigned)
(D) Cc1cc(Cl)cnc1C(=O)Nc1cnc2c(c1)[C@@]1(C)N=C(N)C3(CCC3)S(=O)(=O)[C@H]1CCO2
Inquiry: Please give the order of these compounds when sorted by IC50, largest value leading. Put the labels in the requested order and write them down.
Reply text: C, A, D, B
(C: 81 nM, A: 29 nM, D: 14 nM, B: 5 nM)

* * *

The entries below come with measured IC50 values attached.
molecular target: Cathepsin D (Cat D) (Homo sapiens, UniProt P07339); assay: In vitro enzymatic Cathepsin D (Cat D) FRET assay; format: biochemical; conditions: Cathepsin D FRET assay; read-out: CatD IC50
Sequence (P07339 65-412, species assumed): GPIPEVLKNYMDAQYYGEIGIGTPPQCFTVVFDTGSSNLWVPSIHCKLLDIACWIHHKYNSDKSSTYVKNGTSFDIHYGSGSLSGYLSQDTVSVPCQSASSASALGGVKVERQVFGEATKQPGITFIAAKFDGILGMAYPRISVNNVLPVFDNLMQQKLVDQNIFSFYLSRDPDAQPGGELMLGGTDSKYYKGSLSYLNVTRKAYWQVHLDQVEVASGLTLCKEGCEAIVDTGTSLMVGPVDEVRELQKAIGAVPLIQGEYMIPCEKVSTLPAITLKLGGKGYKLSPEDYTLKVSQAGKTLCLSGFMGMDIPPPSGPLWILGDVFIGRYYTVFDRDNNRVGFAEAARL

Sample answers from the record:
{"columns": ["compound", "reading"],
 "data": [
  ["C[C@H]1C[C@@H]2[C@](C)(N=C(N)C(C)(C)S2(=O)=O)c2cc(NC(=O)c3ncc(Cl)cc3CO)ccc2O1 [Example 130]", "44.8 µM"],
  ["Cc1cc(C(F)(F)F)cnc1C(=O)Nc1ccc2c(c1)[C@@]1(CF)N=C(N)C(C)(C)S(=O)(=O)[C@@H]1C[C@H](C)O2 [Example 104]", "> 400 µM"]
]}

API: the following record is the query input.
Inquiry: Give the reported IC50 for this compound. Cc1cc(COc2cnc3c(Nc4ccc5c(c4)[C@@]4(C)N=C(N)C(C)(C)S(=O)(=O)[C@@H]4C[C@H](C)O5)nccc3n2)on1 [Example 137]
Reply text: > 133 µM

* * *

target: Beta Secretase enzyme (BACE) (Homo sapiens, UniProt P56817); test: In vitro enzymatic BACE FRET assay; format: biochemical; conditions: average IC50; read-out: BACE1 FRET assay IC50
recorded metric: IC50 (nM)

{"columns": ["compound", "target desc", "IC50, nM"],
 "data": [
  ["COc1cnc2c(Nc3ccc4c(c3)[C@@]3(C)N=C(N)C(C)(C)S(=O)(=O)[C@@H]3C[C@H](C)O4)ncc(F)c2c1 [Example 52]", "Beta Secretase enzyme (BACE) (Homo sapiens, UniProt P56817)", 14]
]}

(1) CC#C[C@H](C)Oc1cnc(C(=O)Nc2ccc3c(c2)[C@@]2(C)N=C(N)C(C)(C)S(=O)(=O)[C@@H]2CCO3)cn1 [Example 15]
(2) CC1(C)C(N)=N[C@]2(C)c3cc(NC(=O)c4ncc(C(F)(F)F)cc4Cl)ccc3OCC[C@H]2S1(=O)=O [Example 25]
Inquiry: From the recorded data, which exceeds the other in IC50: 1 or 2 ? Respond with the label that goes with your answer.
Reply text: 2
(2: 7 nM, 1: 3 nM)

* * *

biological target: Beta Secretase enzyme (BACE) (Homo sapiens); test: In vitro enzymatic BACE FRET assay; assay type: biochemical; conditions: average IC50; read-out: BACE1 FRET assay IC50
pIC50: −log10 of the molar value.
recorded metric: pIC50

{"columns": ["compound", "recorded metric", "reading"],
 "data": [
  ["CC#C[C@@H](C)Oc1cnc(C(=O)Nc2ccc3c(c2)[C@@]2(C)N=C(N)C(C)(C)S(=O)(=O)[C@@H]2CCO3)cn1 [Example 16]", "pIC50", 7.52],
  ["Cc1cc(C(F)F)cnc1C(=O)Nc1ccc2c(c1)[C@@]1(C)N=C(N)C(C)(C)S(=O)(=O)[C@H]1CCC2 [Example 35]", "pIC50", 7.31],
  ["CCc1ccc(C(=O)Nc2ccc3c(c2)[C@@]2(C)N=C(N)C(C)(C)S(=O)(=O)[C@@H]2CCO3)nc1 [Example 29]", "pIC50", 7.42],
  ["Cc1cc(C(F)F)cnc1C(=O)Nc1ccc2c(c1)[C@@]1(C)N=C(N)C(C)(C)S(=O)(=O)[C@@H]1CCC2 [Example 40]", "pIC50", 7.46]
]}

* * *

biological target: Beta Secretase enzyme (BACE) (Homo sapiens); experiment: In vitro enzymatic BACE FRET assay; assay type: biochemical; details: average IC50; read-out: BACE1 FRET assay IC50
recorded metric: IC50 (nM)

In the examples that follow, each entry is paired with its recorded IC50.
{"columns": ["smiles code", "target desc", "units label", "IC50"],
 "data": [
  ["CC1(C)C(N)=N[C@]2(C)c3cc(NC(=O)c4ccc(Cl)cn4)ccc3CCC[C@H]2S1(=O)=O", "Beta Secretase enzyme (BACE) (Homo sapiens)", "nM", 12],
  ["Cc1cc(Cl)cnc1C(=O)Nc1ccc2c(c1)[C@@]1(C)N=C(N)C(C)(C)S(=O)(=O)[C@H]1CCC2", "Beta Secretase enzyme (BACE) (Homo sapiens)", "nM", 21],
  ["CC1(C)C(N)=N[C@]2(C)c3cc(NC(=O)c4ncc(C(F)F)cc4Cl)ccc3OCC[C@H]2S1(=O)=O", "Beta Secretase enzyme (BACE) (Homo sapiens)", "nM", 12]
]}

(P) Cc1cc(OCC(F)(F)F)cnc1C(=O)Nc1ccc2c(c1)[C@@]1(C)N=C(N)C(C)(C)S(=O)(=O)[C@@H]1CCO2
(Q) CC1(C)C(N)=N[C@]2(C)c3cc(NC(=O)c4ccc(OC(F)F)cn4)ccc3OCC[C@H]2S1(=O)=O
Inquiry: Between P and Q , whose recorded IC50 is greater? Output the label that corresponds to your choice.
Reply text: P

* * *

biological target: Beta Secretase enzyme (BACE) (Homo sapiens); assay: In vitro enzymatic BACE FRET assay; format: biochemical; settings: average IC50; read-out: BACE1 FRET assay IC50
recorded metric: IC50 (µM)

Here are 2 molecules together with their reported answers.
{"columns": ["molecule", "IC50 / µM"],
 "data": [
  ["CC1(C)C(N)=N[C@]2(C)c3cc(Nc4nccc5cc(Cl)cnc45)ccc3CCC[C@@H]2S1(=O)=O", 0.071],
  ["Cc1cnc(COc2cnc(C(=O)Nc3ccc4c(c3)[C@@]3(C)N=C(N)C(C)(C)S(=O)(=O)[C@@H]3C[C@H](C)O4)cn2)o1", 0.004]
]}

(A) Cc1cc(C(F)(F)F)cnc1C(=O)Nc1ccc2c(c1)[C@@]1(C)N=C(N)C(C)(C)S(=O)(=O)[C@@H]1C[C@H](C)O2
(B) Cc1nc(OCC2CC2)cnc1C(=O)Nc1ccc2c(c1)[C@@]1(C)N=C(N)C(C)(C)S(=O)(=O)[C@@H]1CCO2
(C) Cc1cc(OC(F)F)cnc1C(=O)Nc1ccc2c(c1)[C@@]1(C)N=C(N)C(C)(C)S(=O)(=O)[C@H]1CCC2
Inquiry: In this exercise, place the 3 molecules in ascending sequence of their recorded IC50. Order the labels as requested and give them as your answer.
Reply text: A, B, C
(A: 0.006 µM, B: 0.01 µM, C: 0.142 µM)

* * *

target: Cathepsin D (Cat D) (Homo sapiens, UniProt P07339); assay: In vitro enzymatic Cathepsin D (Cat D) FRET assay; type: biochemical; details: Cathepsin D FRET assay; read-out: CatD IC50
recorded metric: IC50 (µM)

{"columns": ["smiles code", "target desc", "IC50 (µM)"],
 "data": [
  ["CC1(C)C[C@@H]2[C@](C)(N=C(N)C(C)(C)S2(=O)=O)c2cc(Nc3nccc4cc(C#N)cnc34)ccc2O1", "Cathepsin D (Cat D) (Homo sapiens, UniProt P07339)", 316],
  ["C[C@H]1C[C@@H]2[C@](C)(N=C(N)C(C)(C)S2(=O)=O)c2cc(NC(=O)c3ccc(OCc4ncco4)cn3)ccc2O1", "Cathepsin D (Cat D) (Homo sapiens, UniProt P07339)", 564],
  ["CC1(C)C(N)=N[C@]2(C)c3cc(NC(=O)c4cnc(OCC(F)F)cn4)ccc3OCC[C@H]2S1(=O)=O", "Cathepsin D (Cat D) (Homo sapiens, UniProt P07339)", 919],
  ["COc1cnc2c(Nc3ccc4c(c3)[C@@]3(C)N=C(N)C(C)(C)S(=O)(=O)[C@@H]3CCO4)nccc2n1", "Cathepsin D (Cat D) (Homo sapiens, UniProt P07339)", 1030],
  ["C#CCOc1cnc(C(=O)Nc2ccc3c(c2)[C@@]2(C)N=C(N)C(C)(C)S(=O)(=O)[C@@H]2CC(C)(C)O3)cn1", "Cathepsin D (Cat D) (Homo sapiens, UniProt P07339)", 202]
]}

(I) Cc1cc(OC(F)F)cnc1C(=O)Nc1ccc2c(c1)[C@@]1(C)N=C(N)C(C)(C)S(=O)(=O)[C@@H]1CCS2
(II) CC1(C)C(N)=N[C@]2(C)c3cc(NC(=O)c4cnc(OCC5CC5)cn4)ccc3OCC[C@H]2S1(=O)=O
(III) Cc1cc(C#N)cnc1C(=O)Nc1ccc2c(c1)[C@@]1(C)N=C(N)C(C)(C)S(=O)(=O)[C@]1(F)CCO2
Inquiry: Sort these compounds on IC50 so the largest reading comes first. Sort the labels as requested; that list is your answer.
Reply text: II, III, I
(II: 745 µM, III: 331 µM, I: 207 µM)
